Measured growth inhibition values are reported for all entries that follow.
experiment: NCI Yeast Anticancer Drug Screen. Data for the mec2-1 strain (AID 157); settings: S. cerevisiae mec2-1 strain, at 50.0 µM, stronger effect = higher value
The panel holds about 79,000 compounds, 15% with a hit somewhere; the sample as a whole holds those more often. Calls of active or inactive are those of the source. Cut-off read from the data, not from the text of the source: active = growth inhibition above about 70%; inactive = the rest.

compound	growth inhibition
Cc1cc2c(cc1Cl)SC(NNc1cnc3ccccc3n1)=NS2(=O)=O	21.6% (inactive)

Consider now this further compound.
Enquiry: Recorded growth inhibition for CC1=C(c2cc(C(=O)Nc3nccs3)nc(NC#N)n2)Sc2ccccc2N1 , please?
Return: 5.4% (inactive)

* * *

test: NCI Yeast Anticancer Drug Screen. Data for the rad50 strain (AID 155);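 note: 0% = growth of vehicle-only cultures of the same strain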; conditions: S. cerevisiae rad50 strain growth inhibition; at 50.0 µM; stronger effect = higher value
This is part of a sample that, as a whole, favours compounds with a hit. Of some 79,000 tested, about 15% had one in any assay.
Rule: class 1 for growth inhibition not less than 4%, class 0 for anything less.

compound	assigned.label
CN1C(=O)C(Cl)(C#N)C(c2ccccc2)N(C)C1c1ccccc1 (stereo unspecified)	class 1
CC(O)CN1c2ccccc2Sc2ccc(Cl)cc21 (stereo unspecified)	class 1
CC1=CCCC(C)(C)C1/C=C\C(C)=N\Nc1ccc([N+](=O)[O-])cc1[N+](=O)[O-] (stereo unspecified)	class 0

Now, please, on to the next compound.
Enquiry: Answer whether growth inhibition of C=CC(C)c1cccc(C=O)c1O (stereo unspecified) is greater than or equal to 4%.
Return: class 0
